- test_system: BRG-1 (Homo sapiens)
- Construct: made in house; host or cells: High Five insect cells
- Sequence (P51532 whole entry): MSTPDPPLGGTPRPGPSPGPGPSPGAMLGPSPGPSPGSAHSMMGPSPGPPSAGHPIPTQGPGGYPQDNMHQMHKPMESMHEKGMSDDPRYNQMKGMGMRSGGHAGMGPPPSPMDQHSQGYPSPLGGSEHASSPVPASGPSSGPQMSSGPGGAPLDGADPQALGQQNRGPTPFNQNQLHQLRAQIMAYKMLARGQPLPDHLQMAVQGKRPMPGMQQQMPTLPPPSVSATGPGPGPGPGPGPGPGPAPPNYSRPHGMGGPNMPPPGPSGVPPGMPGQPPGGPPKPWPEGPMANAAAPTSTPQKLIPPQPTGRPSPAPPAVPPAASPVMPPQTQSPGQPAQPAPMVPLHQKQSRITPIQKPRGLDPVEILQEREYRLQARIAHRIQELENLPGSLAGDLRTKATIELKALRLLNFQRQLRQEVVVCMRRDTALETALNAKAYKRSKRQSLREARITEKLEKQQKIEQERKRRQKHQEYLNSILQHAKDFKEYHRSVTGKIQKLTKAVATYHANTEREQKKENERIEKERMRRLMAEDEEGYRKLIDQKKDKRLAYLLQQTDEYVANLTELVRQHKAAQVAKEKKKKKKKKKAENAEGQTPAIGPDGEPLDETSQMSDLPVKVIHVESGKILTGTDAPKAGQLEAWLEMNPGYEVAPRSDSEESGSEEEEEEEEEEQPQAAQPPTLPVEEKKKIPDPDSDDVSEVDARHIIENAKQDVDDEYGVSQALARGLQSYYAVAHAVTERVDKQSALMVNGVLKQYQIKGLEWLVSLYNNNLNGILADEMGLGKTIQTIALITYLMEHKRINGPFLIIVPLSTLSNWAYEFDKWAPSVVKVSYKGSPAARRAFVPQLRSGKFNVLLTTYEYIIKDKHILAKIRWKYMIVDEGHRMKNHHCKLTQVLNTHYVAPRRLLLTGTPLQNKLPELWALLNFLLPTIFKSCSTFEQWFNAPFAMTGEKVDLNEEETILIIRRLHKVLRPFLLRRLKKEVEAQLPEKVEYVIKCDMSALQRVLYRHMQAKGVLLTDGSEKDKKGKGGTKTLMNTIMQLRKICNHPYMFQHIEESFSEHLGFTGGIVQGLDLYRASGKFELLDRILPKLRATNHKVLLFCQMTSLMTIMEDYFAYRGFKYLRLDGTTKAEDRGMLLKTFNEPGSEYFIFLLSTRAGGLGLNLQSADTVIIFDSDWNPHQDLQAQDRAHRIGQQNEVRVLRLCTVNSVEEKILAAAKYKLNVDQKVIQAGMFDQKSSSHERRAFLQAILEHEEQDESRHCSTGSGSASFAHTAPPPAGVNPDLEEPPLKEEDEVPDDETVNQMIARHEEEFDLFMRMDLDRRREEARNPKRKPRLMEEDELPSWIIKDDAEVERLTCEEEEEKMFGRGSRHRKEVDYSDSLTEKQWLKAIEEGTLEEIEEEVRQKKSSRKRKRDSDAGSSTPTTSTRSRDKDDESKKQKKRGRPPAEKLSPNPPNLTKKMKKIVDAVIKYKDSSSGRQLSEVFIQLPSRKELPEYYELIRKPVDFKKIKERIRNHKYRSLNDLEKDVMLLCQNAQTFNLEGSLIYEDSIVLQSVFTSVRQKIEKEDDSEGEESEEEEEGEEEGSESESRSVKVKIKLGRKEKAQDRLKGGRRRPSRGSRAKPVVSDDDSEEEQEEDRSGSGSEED
- test_description: ATPase catalytic activity of BRG-1, ADP-Glo in vitro biochemical assay
- experimental_setup: ATPase catalytic activity, 30 nM BRG-1, 400 μM ATP, read-out: BRG1 IP50
pIC50: −log10 of the molar value.
parameter_measured: pIC50

> print(dat)
                                    compound  parameter.measured  obs.value
 1  CS(=O)(=O)n1ccc(C(=O)NCC(=O)Nc2nc(-c3cccc(N4CC[C@@H](N)C(F)(F)C4)c3)cs2)c1 [Compound 558]               pIC50     > 8.00
 2  C[C@@H]1CN(c2cccc(-c3csc(NC(=O)CNC(=O)c4ccn([C@]5(C)CC5(F)F)c4)n3)n2)C[C@H](C)O1 [Compound 622]               pIC50     < 8.00
 3  COC[C@H](NC(=O)c1ccn(S(C)(=O)=O)c1)C(=O)Nc1nc(-c2cc(F)cc(C#N)c2)cs1 [Compound 714]               pIC50     < 8.00
 4  CC(C)(C)n1ccc(C(=O)NCC(=O)Nc2nc(-c3cccc(N4CCc5ccncc5C4)n3)cs2)c1 [Compound 632]               pIC50     < 8.00
 5  COC[C@H](NC(=O)c1ccn(S(C)(=O)=O)c1)C(=O)Nc1nc(-c2cc(F)cc(OC)c2)cs1 [Compound 726]               pIC50     > 8.00
 6  CC(C)(C)n1ccc(C(=O)NCC(=O)Nc2nc(-c3cccc(N4CCC(C(F)F)C4)n3)cs2)c1 (centres unmarked) [Compound 618]               pIC50     < 8.00
 7  COC[C@H](NC(=O)c1ccn(S(C)(=O)=O)c1)C(=O)Nc1nc(-c2ccc(F)c(OC)c2)cs1 [Compound 716]               pIC50     < 8.00
 8  C[C@@H]1CN(c2cccc(-c3csc(NC(=O)CNC(=O)c4ccn(S(C)(=O)=O)c4)n3)c2)[C@@H](C)CO1 [Compound 471]               pIC50     < 7.00
 9  N#CC1(n2ccc(C(=O)NCC(=O)Nc3nc(-c4cccc(OC(F)(F)F)n4)cs3)c2)CC1 [Compound 496]               pIC50     < 7.00
10  Cn1cc2c(n1)CCN(c1cccc(-c3csc(NC(=O)CNC(=O)c4ccn(C(C)(C)C)c4)n3)n1)C2 [Compound 637]               pIC50     < 8.00
11  CS(=O)(=O)n1ccc(C(=O)NCC(=O)Nc2nc(-c3ccc4c(c3)OCO4)cs2)c1 [Compound 574]               pIC50     < 8.00
12  CS(=O)(=O)n1ccc(C(=O)NCC(=O)Nc2nc(-c3cccc(N4CCC4)c3F)cs2)c1 [Compound 499]               pIC50     > 8.00
13  COC(=O)N1CCC[C@@H](c2csc(NC(=O)CNC(=O)c3ccn(C(C)(C)C)c3)n2)C1 [Compound 580]               pIC50     < 7.00
14  CC(C)(F)COc1cccc(-c2csc(NC(=O)CNC(=O)c3ccn(S(C)(=O)=O)c3)n2)c1 [Compound 483]               pIC50     < 8.00
15  CC(C)(C)n1ccc(C(=O)NCC(=O)Nc2nc(-c3cccc(N4CC[C@@H](N5CCOCC5)[C@@H](F)C4)n3)cs2)c1 [Compound 635]               pIC50     < 7.00
16  Cn1ncc(-c2cccc(-c3csc(NC(=O)CNC(=O)c4ccn(C5(C)COC5)c4)n3)n2)n1 [Compound 470]               pIC50     < 7.00
17  CS(=O)(=O)n1ccc(C(=O)NCC(=O)Nc2nc(-c3ccc4c(c3)C(F)(F)CC4)cs2)c1 [Compound 720]               pIC50     < 8.00
18  CS(=O)(=O)n1ccc(C(=O)NCC(=O)Nc2nc(-c3ccc4c(c3)CCO4)cs2)c1 [Compound 619]               pIC50     < 8.00
19  COC[C@H](NC(=O)c1ccn(C(C)(C)C#N)c1)C(=O)Nc1nc(-c2ccc3ccn(C)c(=O)c3c2)cs1 [Compound 584]               pIC50     > 8.00
20  CS(=O)(=O)n1ccc(C(=O)NCC(=O)Nc2nc(-c3ccc4c(c3)N(CC3COC3)CC4)cs2)c1 [Compound 486]               pIC50     < 8.00
21  CN1CCc2c(F)cc(-c3csc(NC(=O)CNC(=O)c4ccn(S(C)(=O)=O)c4)n3)cc21 [Compound 569]               pIC50     > 8.00
22  COC(=O)N1CCC[C@@H](c2csc(NC(=O)CNC(=O)c3ccn(S(C)(=O)=O)c3)n2)C1 [Compound 578]               pIC50     < 7.00
23  CC(C)(C)n1ccc(C(=O)NCC(=O)Nc2nc(-c3cccc(C4CC(F)(F)C4)n3)cs2)c1 [Compound 481]               pIC50     < 7.00
24  CO[C@H]1C[C@@H](c2cccc(-c3csc(NC(=O)CNC(=O)c4ccn(S(C)(=O)=O)c4)n3)c2)C1 [Compound 479]               pIC50     < 8.00
25  COC[C@H](NC(=O)c1ccn(S(C)(=O)=O)c1)C(=O)Nc1nc(-c2cc(F)c3c(c2)CCO3)cs1 [Compound 708]               pIC50     > 8.00
26  CC1CN(c2cccc(-c3csc(NC(=O)CNC(=O)c4ccn(C(C)(C)C)c4)n3)n2)C1 [Compound 625]               pIC50     < 7.00
27  CS(=O)(=O)n1ccc(C(=O)NCC(=O)Nc2nc(-c3ccc4c(c3)N(CC(F)F)CC4)cs2)c1 [Compound 487]               pIC50     < 8.00
28  COC[C@H](NC(=O)c1ccn(C(C)(C)C)c1)C(=O)Nc1nc(-c2cc(C)c3ccn(C)c(=O)c3c2)cs1 [Compound 485]               pIC50     > 8.00
29  COC[C@H](NC(=O)c1ccn(C2(C)COC2)c1)C(=O)Nc1nc(-c2cc(F)c3ccn(C)c(=O)c3c2)cs1 [Compound 564]               pIC50     > 8.00

Attribution: patent US20230079819A1
